# AIRE transcriptional activation functional score annotations
B1: library; numbered along this chain (parent)
chain: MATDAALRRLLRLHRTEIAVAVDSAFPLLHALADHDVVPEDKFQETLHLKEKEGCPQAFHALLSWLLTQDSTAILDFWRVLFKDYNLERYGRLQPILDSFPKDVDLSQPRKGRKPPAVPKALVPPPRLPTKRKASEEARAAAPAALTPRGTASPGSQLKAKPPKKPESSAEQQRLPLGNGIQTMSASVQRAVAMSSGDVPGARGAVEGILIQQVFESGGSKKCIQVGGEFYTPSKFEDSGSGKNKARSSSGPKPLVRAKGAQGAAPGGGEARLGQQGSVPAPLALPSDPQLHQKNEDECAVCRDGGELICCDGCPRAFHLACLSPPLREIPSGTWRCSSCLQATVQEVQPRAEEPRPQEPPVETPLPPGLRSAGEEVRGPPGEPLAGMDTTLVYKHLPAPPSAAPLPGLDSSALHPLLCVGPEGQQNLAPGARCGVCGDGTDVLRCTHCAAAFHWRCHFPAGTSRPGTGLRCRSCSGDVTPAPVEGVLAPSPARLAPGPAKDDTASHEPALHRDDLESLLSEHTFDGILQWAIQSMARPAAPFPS

Variants of: B1
test summary: AIRE transcriptional activation functional score (insulin promoter-GFP; nonsense median 0, synonymous median 1) (normalised score); higher = higher AIRE activity (more reporter activation)
run conditions: with insulin promoter-GFP reporter in HEK293
Please give the numeric answer without any surrounding text.

C475V	0.0724
A121H	0.141
P481M	1.29
R110T	0.97
A73E	0.775

Respond only with AIRE transcriptional activation functional score recorded for T344D
0.882

Respond only with AIRE transcriptional activation functional score recorded for P326H
0.781
